biological target: Rap guanine nucleotide exchange factor 3 (Homo sapiens); experiment: Counterscreen qHTS for agonist of cAMP-regulated guanine nucleotide exchange factor 3 (EPAC1) (AID 1645889); settings: EPAC1 Rap1B-BODIPY-GDP exchange, fluorescence; series mostly up to 154 µM; further: % of control where 0% means no effect; nearly all actives have a fitted effect of over 40% in size
Results filed as inconclusive are left out. Active and inactive are the calls of the source. The call rests on the fitted dose curve; in most records, active means well fitted activation curve with a large enough effect; inconclusive means small, poorly fitted or top-dose-only effect, or another doubt; inactive means no such curve, though single readings can be large or run the other way.
Readout Kind: activation

compound=N#Cc1ccc(CSc2nc(N)cc(N)n2)cc1 readout_kind=activation reported=inactive
compound="COc1cc(NC2c3ncccc3C(=O)N2Cc2ccco2)cc(OC)c1 (stereo not given)" readout_kind=activation reported=inactive
compound=COc1ccc(NC(=O)COC(=O)CCCOc2ccc(Cl)cc2Cl)cc1Cl readout_kind=activation reported=inactive
compound=CCc1nc2c(OCc3ccc(C(=O)OC)cc3)cccn2c1N(C)C(=O)c1ccc(OC)cc1 readout_kind=activation reported="20% [at 30.8 µM] (inactive)"
compound=Cc1ccc(SCC(=O)Nc2ccccc2N2CCOCC2)cc1 readout_kind=activation reported=inactive

###

target: Rap guanine nucleotide exchange factor 3 (Homo sapiens) (UniProt O95398); assay: Counterscreen qHTS for antagonist of cAMP-regulated guanine nucleotide exchange factor 3 (EPAC1) (AID 1645888); conditions: Rap1B-BODIPY-GDP nucleotide exchange, fluorescence; series mostly up to 154 µM;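 further: fluorescence loss as bound BODIPY-GDP is released from Rap1B; % of control where 0% means no effect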
Sequence (O95398 whole entry, looked up): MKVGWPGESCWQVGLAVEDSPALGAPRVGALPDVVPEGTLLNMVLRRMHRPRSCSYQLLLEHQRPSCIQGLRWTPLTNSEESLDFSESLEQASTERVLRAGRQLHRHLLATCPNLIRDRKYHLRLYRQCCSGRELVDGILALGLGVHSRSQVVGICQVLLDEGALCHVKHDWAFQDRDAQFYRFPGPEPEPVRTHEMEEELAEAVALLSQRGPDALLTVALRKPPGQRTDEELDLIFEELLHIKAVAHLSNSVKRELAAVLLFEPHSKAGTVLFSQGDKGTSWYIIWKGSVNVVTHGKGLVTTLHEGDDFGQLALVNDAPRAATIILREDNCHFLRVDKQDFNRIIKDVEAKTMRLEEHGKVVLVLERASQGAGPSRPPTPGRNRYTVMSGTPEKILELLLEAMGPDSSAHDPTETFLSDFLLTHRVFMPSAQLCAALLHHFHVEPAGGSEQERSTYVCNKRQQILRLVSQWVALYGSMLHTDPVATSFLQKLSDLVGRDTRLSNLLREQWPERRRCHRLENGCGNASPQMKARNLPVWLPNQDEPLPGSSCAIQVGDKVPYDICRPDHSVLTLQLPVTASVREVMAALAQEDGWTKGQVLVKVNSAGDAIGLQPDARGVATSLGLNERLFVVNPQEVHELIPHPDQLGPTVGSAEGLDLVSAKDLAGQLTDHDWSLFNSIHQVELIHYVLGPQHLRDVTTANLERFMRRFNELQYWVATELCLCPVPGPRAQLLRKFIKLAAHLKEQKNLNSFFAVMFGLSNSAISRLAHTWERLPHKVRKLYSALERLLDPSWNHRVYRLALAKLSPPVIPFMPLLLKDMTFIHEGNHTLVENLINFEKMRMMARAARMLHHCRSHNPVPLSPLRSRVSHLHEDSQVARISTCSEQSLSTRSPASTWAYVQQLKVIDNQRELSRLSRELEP
Records with an inconclusive call do not appear. Activity calls are given as the source filed them. Calls come from the whole dose curve; as a rule, active = well fitted inhibition curve with a large enough effect; inconclusive = small, poorly fitted or top-dose-only effect; inactive = no such curve, though single readings can be large or run the other way.
Readout Kind: activity change, negative = inhibition

compound=CCCCOc1ccc(NS(=O)(=O)c2ccc(-n3cnnn3)cc2)cc1 tested_system="Rap guanine nucleotide exchange factor 3 (Homo sapiens) (UniProt O95398)" readout_kind="activity change, negative = inhibition" reported=inactive
compound=Cc1ccc(CC#N)c(-c2c(CC#N)ccc(C)c2C)c1C tested_system="Rap guanine nucleotide exchange factor 3 (Homo sapiens) (UniProt O95398)" readout_kind="activity change, negative = inhibition" reported=inactive
compound=CCOC(=O)N1CCN(C(=O)C(C)(C)Oc2ccc(Cl)cc2)CC1 tested_system="Rap guanine nucleotide exchange factor 3 (Homo sapiens) (UniProt O95398)" readout_kind="activity change, negative = inhibition" reported="6.37% [at 30.8 µM] (inactive)"
compound=Cc1onc(-c2c(F)cccc2Cl)c1C(=O)OCc1cnc(Cl)s1 tested_system="Rap guanine nucleotide exchange factor 3 (Homo sapiens) (UniProt O95398)" readout_kind="activity change, negative = inhibition" reported=inactive
compound=Cc1cc(/C=C2\SC(=S)NC2=O)c(C)n1-c1ccc(O)cc1 tested_system="Rap guanine nucleotide exchange factor 3 (Homo sapiens) (UniProt O95398)" readout_kind="activity change, negative = inhibition" reported=inactive
compound=Cc1ccc([N+](=O)[O-])cc1NC(=O)CN(C1CCCCC1)S(=O)(=O)c1ccc(Cl)cc1 tested_system="Rap guanine nucleotide exchange factor 3 (Homo sapiens) (UniProt O95398)" readout_kind="activity change, negative = inhibition" reported=inactive
compound="CCOc1cc2c(cc1/C=C/c1noc(C)c1[N+](=O)[O-])OC(C)C2 (stereo not given)" tested_system="Rap guanine nucleotide exchange factor 3 (Homo sapiens) (UniProt O95398)" readout_kind="activity change, negative = inhibition" reported="-13.8% [at 30.8 µM] (inactive)"
compound="CCOC(=O)C1=C(N)c2ccccc2CC1C1CCCC1 (stereo not given)" tested_system="Rap guanine nucleotide exchange factor 3 (Homo sapiens) (UniProt O95398)" readout_kind="activity change, negative = inhibition" reported=inactive
compound=CCOc1ccc(S(=O)(=O)Nc2cc(NS(=O)(=O)c3ccc(OCC)cc3)cc(C(=O)O)c2)cc1 tested_system="Rap guanine nucleotide exchange factor 3 (Homo sapiens) (UniProt O95398)" readout_kind="activity change, negative = inhibition" reported=inactive
compound=COC(=O)c1cc2ccsc2n1Cc1cccc(F)c1 tested_system="Rap guanine nucleotide exchange factor 3 (Homo sapiens) (UniProt O95398)" readout_kind="activity change, negative = inhibition" reported=inactive
compound=CC(C)=CCC[C@H](C)C[C@@H]1Cc2[nH][nH]c(=O)c2[C@@H](c2ccc(F)cc2)O1 tested_system="Rap guanine nucleotide exchange factor 3 (Homo sapiens) (UniProt O95398)" readout_kind="activity change, negative = inhibition" reported="-22.9% [at 30.8 µM] (inactive)"
compound=CCOc1nc(-c2ccccc2Cl)nc2ccccc12 tested_system="Rap guanine nucleotide exchange factor 3 (Homo sapiens) (UniProt O95398)" readout_kind="activity change, negative = inhibition" reported=inactive
compound=Cc1cccc2sc(N(CCCN(C)C)C(=O)CCS(=O)(=O)c3ccccc3)nc12 tested_system="Rap guanine nucleotide exchange factor 3 (Homo sapiens) (UniProt O95398)" readout_kind="activity change, negative = inhibition" reported=inactive
compound="COc1cc(OC)c2c(-c3ccccc3)cc(=O)oc2c1C(CC(=O)N1CCOCC1)c1ccc2c(c1)OCO2 (stereo not given)" tested_system="Rap guanine nucleotide exchange factor 3 (Homo sapiens) (UniProt O95398)" readout_kind="activity change, negative = inhibition" reported="-9.45% [at 30.8 µM] (inactive)"
compound=CC(=O)NNC(=O)c1sc(=S)n2c1[nH]c(=O)c1sccc12 tested_system="Rap guanine nucleotide exchange factor 3 (Homo sapiens) (UniProt O95398)" readout_kind="activity change, negative = inhibition" reported=inactive
compound="Cc1ccc2c(c1)NC(=O)C(CC(=O)N(C)Cc1ccccc1)O2 (stereo not given)" tested_system="Rap guanine nucleotide exchange factor 3 (Homo sapiens) (UniProt O95398)" readout_kind="activity change, negative = inhibition" reported="-5.86% [at 30.8 µM] (inactive)"
compound=Cc1ccc(CN(C(=O)COc2cccc([N+](=O)[O-])c2)c2ccccn2)cc1 tested_system="Rap guanine nucleotide exchange factor 3 (Homo sapiens) (UniProt O95398)" readout_kind="activity change, negative = inhibition" reported=inactive
compound=COc1ccc(-c2nc(C)ncc2-c2ccc(Cl)cc2)c(O)c1 tested_system="Rap guanine nucleotide exchange factor 3 (Homo sapiens) (UniProt O95398)" readout_kind="activity change, negative = inhibition" reported=inactive
compound=O=C(N[C@H](Cc1ccc(Cl)cc1)C(=O)O)OCC1c2ccccc2-c2ccccc21 tested_system="Rap guanine nucleotide exchange factor 3 (Homo sapiens) (UniProt O95398)" readout_kind="activity change, negative = inhibition" reported="-5.81% [at 30.8 µM] (inactive)"
compound="O=c1[nH][nH]c(-c2ccccc2O)c1C(C[N+](=O)[O-])c1ccc(Br)cc1 (stereo not given)" tested_system="Rap guanine nucleotide exchange factor 3 (Homo sapiens) (UniProt O95398)" readout_kind="activity change, negative = inhibition" reported=inactive
compound=Cn1c(/N=C/c2c(O)ccc3ccccc23)nc2ccccc21 tested_system="Rap guanine nucleotide exchange factor 3 (Homo sapiens) (UniProt O95398)" readout_kind="activity change, negative = inhibition" reported=inactive
compound=CCOC1=C2[C@@H](CN(S(=O)(=O)c3ccc(C)cc3)[C@H]2c2ccccc2Cl)[C@H]2C(=O)NC(=O)[C@H]2C1 tested_system="Rap guanine nucleotide exchange factor 3 (Homo sapiens) (UniProt O95398)" readout_kind="activity change, negative = inhibition" reported=inactive
compound=CN1/C(=C\C=C(/C#N)C(=O)Nc2ccc(Cl)cc2)C(C)(C)c2ccccc21 tested_system="Rap guanine nucleotide exchange factor 3 (Homo sapiens) (UniProt O95398)" readout_kind="activity change, negative = inhibition" reported=inactive
compound="CC(=O)N(CCC(Cc1ccccc1)c1ccco1)Cc1ccco1 (stereo not given)" tested_system="Rap guanine nucleotide exchange factor 3 (Homo sapiens) (UniProt O95398)" readout_kind="activity change, negative = inhibition" reported="-6.33% [at 30.8 µM] (inactive)"
compound=Cc1cc(C2(c3ccc(O)c(C)c3)C(=O)N(C)c3ccc(Br)cc32)ccc1O tested_system="Rap guanine nucleotide exchange factor 3 (Homo sapiens) (UniProt O95398)" readout_kind="activity change, negative = inhibition" reported="-4.41% [at 30.8 µM] (inactive)"
compound="COc1ccc(N=C2SC(C(=O)Nc3ccc(C(=O)O)cc3)CC(=O)N2Cc2cccs2)cc1 (stereo not given)" tested_system="Rap guanine nucleotide exchange factor 3 (Homo sapiens) (UniProt O95398)" readout_kind="activity change, negative = inhibition" reported="-2.18% [at 30.8 µM] (inactive)"
compound=COC(=O)CN(c1nc(C)c(Br)c(OC)n1)S(=O)(=O)c1ccccc1 tested_system="Rap guanine nucleotide exchange factor 3 (Homo sapiens) (UniProt O95398)" readout_kind="activity change, negative = inhibition" reported=inactive
compound="CCOP(=O)(OCC)C(Cc1ccccc1)N=C(c1ccccc1)c1ccccc1 (stereo not given)" tested_system="Rap guanine nucleotide exchange factor 3 (Homo sapiens) (UniProt O95398)" readout_kind="activity change, negative = inhibition" reported="3.36% [at 30.8 µM] (inactive)"
compound=COc1ccc(OC)c(-n2c(SC)nnc2-c2c[nH]c3ccccc23)c1 tested_system="Rap guanine nucleotide exchange factor 3 (Homo sapiens) (UniProt O95398)" readout_kind="activity change, negative = inhibition" reported=inactive
compound="CCOc1ccc2nc(S(=O)(=O)NC(=O)C3(C)CCN3C(=O)CCc3cccs3)sc2c1 (stereo not given)" tested_system="Rap guanine nucleotide exchange factor 3 (Homo sapiens) (UniProt O95398)" readout_kind="activity change, negative = inhibition" reported="-20.4% [at 30.8 µM] (inactive)"
compound=Cc1ccc(N(Cc2ccc([N+](=O)[O-])cc2)C(=O)c2ccco2)cc1 tested_system="Rap guanine nucleotide exchange factor 3 (Homo sapiens) (UniProt O95398)" readout_kind="activity change, negative = inhibition" reported=inactive
compound=COc1ccc2c(c1)CCc1c(C(=O)N3CCCc4ccccc43)noc1-2 tested_system="Rap guanine nucleotide exchange factor 3 (Homo sapiens) (UniProt O95398)" readout_kind="activity change, negative = inhibition" reported=inactive
compound=COC(=O)c1ccc2nc(-c3ccc(Cl)cc3)c(Cc3ccccc3OC)n2c1 tested_system="Rap guanine nucleotide exchange factor 3 (Homo sapiens) (UniProt O95398)" readout_kind="activity change, negative = inhibition" reported=inactive
compound=COc1ccc(NS(=O)(=O)c2ccc(S(=O)(=O)N3CCCC3)cc2)cc1 tested_system="Rap guanine nucleotide exchange factor 3 (Homo sapiens) (UniProt O95398)" readout_kind="activity change, negative = inhibition" reported="-8.86% [at 30.8 µM] (inactive)"
compound=O=C(Cc1ccccc1)Nn1c(O)c(/C=C2\C=Nc3ccccc32)sc1=S tested_system="Rap guanine nucleotide exchange factor 3 (Homo sapiens) (UniProt O95398)" readout_kind="activity change, negative = inhibition" reported=inactive
